Attribution: PubChem BioAssay AID463143

What fold change was measured for each of the following?
# targetDesc: Oxysterols receptor LXR-beta (Homo sapiens)
# experimentDescription: activation of LXR ligand-binding domain – cell-based, luminescence, single concentration, powder samples, selectivity assay for RORA inverse agonist project, late-stage follow-up (AID 463143)
# assayConditions: HEK293T GAL4-LXR LBD luciferase reporter, 18-24 h; at 10 µM; stronger effect = higher value
Activity calls are given as the source filed them.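 Rule for the calls: active = fold change in liver X receptor activation above 2; inactive = the rest.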

In: Value lookup for fold change; key = `O=C(Nc1ccc(C(O)(C(F)(F)F)C(F)(F)F)cc1)c1ccc(F)cc1F`
Out: 1.39 (inactive)

In: Record: `O=C(Nc1ccc(C(O)(C(F)(F)F)C(F)(F)F)cc1)c1c(F)cccc1F`
Out: 0.937 (inactive)

In: And then `O=C(Nc1ccc(C(O)(C(F)(F)F)C(F)(F)F)cc1)c1ccc(F)cc1Cl` , what is it?
Out: 1.04 (inactive)

In: And the next one, `O=S(=O)(Nc1ccc(C(O)(C(F)(F)F)C(F)(F)F)cc1)c1cccs1` ?
Out: 1.39 (inactive)

In: Continue with `O=C(Nc1ccc(C(O)(C(F)(F)F)C(F)(F)F)cc1)c1ccccc1C(F)(F)F`
Out: 0.958 (inactive)

In: Now give it for `O=C(Nc1ccc(C(O)(C(F)(F)F)C(F)(F)F)cc1)c1ccc(Cl)cc1` too.
Out: 1.15 (inactive)
